- studySystem: pre-existing anti-drug antibodies (ADA) present in human sera
- runDescription: ELISA pre-existing ADA binding assay, confirmatory setup, test molecule coated, 20 human sera
testReadout: % positives of total tested serum samples (%)
The figure you give is taken to be in %; do not add the unit.

-- ask Please look up its % positives of total tested serum samples: PRO2903 (scFv) scFv: DIQMTQSPASLSASVGDRVTITCQASQSIGTYLAWYQQKPGKPPKLLIYRAFILASGVPSRFSGSGSGTDFTLTISSLQPEDFATYYCQSNFYSDSTTIGPNAFGTGTKVTVLGGGGGSGGGGSGGGGSGGGGSEVQLVESGGGRVQPGGSLRLSCAASGFSFNSDYWIYWVRQAPGKGLEWIASIYGGSSGNTQYASWAQGRFTISRDNSKNTVYLQMNSLRAEDTATYFCARGYVDYGGATDLWGQGTQVTVSS
-- reply 30

-- ask Similarly, PRO2905 (scFv) scFv: DIQMTQSPASLSASVGDRVTITCQASQSIGTYLAWYQQKPGKPPKLLIYRAFILASGVPSRFSGSGSGTDFTLTISSLQPEDFATYYCQSNFYSDSTTIGPNAFGTGTKVTVLGGGGGSGGGGSGGGGSGGGGSEVQLVESGGGRVQPGGSLRLSCAASGFSFNSDYWIYWVRQAPGKGLEWIASIYGGSSGNTQYASWAQGRFTISRDNSKNTVYLQMNSLRAEDTAVYFCARGYVDYGGATDLWGQGTQVTVSS ?
-- reply 20
